species: Rattus norvegicus; assay: Open TG-GATES - Regimen: Daily Repeat; assay type: toxicity, organism-based, Sprague-Dawley; parameters: regimen Daily Repeat, gender Male, age 6 weeks; settings: in vivo, po, 0 mg/kg, […], route gavage, dose level Control, time 7 day
measurement.label: TERMINAL_BW (g)

CC[C@@H](CO)NCCN[C@@H](CC)CO ... 267.6
CCN(CC)N=O ... 275.8
O=C(O)COc1nn(Cc2ccccc2)c2ccccc12 ... 264.6
CC(N)=O [ACETAMIDE] ... 276.9
CC(CCc1ccccc1)NCC(O)c1ccc(O)c(C(N)=O)c1 (stereo not drawn) ... 289.5
CC(C)Cc1ccc(C(C)C(=O)O)cc1 (stereo not drawn) ... 270
CC(=O)Nc1ccc2c(c1)Cc1ccccc1-2 ... 278.1
CC(=O)N1CCN(c2ccc(OCC3COC(Cn4ccnc4)(c4ccc(Cl)cc4Cl)O3)cc2)CC1 (stereo not drawn) ... 269.3

Taken from ChEMBL document CHEMBL3885861.
